B1: minF1; a variant is named by its letters at N, in order (parent)
chain: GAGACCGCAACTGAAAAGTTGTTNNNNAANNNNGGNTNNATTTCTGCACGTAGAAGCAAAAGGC

variants of: B1; experiment: fraction ligated after 30 min (ligated reads / total reads); higher = more ligase activity; conditions: with F1*subA RNA substrate (template-directed ligation), 42 °C
Decision: fraction ligated >= 0.002 yields Fulfilled, all other cases yield Not fulfilled.

| sequence data | category |
| --- | --- |
| GAGACCGCAACTGAAAAGTTGTATCAAAATGGATGGTTGATTTCTGCACGTAGAAGCAAAAGGC [TCAATGGAGTG T23A G34T] | Fulfilled |
| GAGACCGCAACTGAAAAGTTGTATGAAAGGATGGGTTGAATTTCTGCACGTAGAAGCAAAAGGC [TGAAGATGTGA T23A A29G] | Not fulfilled |
| GAGACCGCAACTGAAAAGTTGTTACAGAAATATGGGTTGATTTCTGCACGTAGAAGCAAAAGGC [ACAGATATGTG] | Fulfilled |
| GAGACCGCAACTGAAAAGTTGTTATAGAAGGTGGGTTGAATTTCTGCACGTAGAAGCAAAAGGC [ATAGGGTGTGA] | Fulfilled |
| GAGACCGCAACTGAAAAGTTGTTATCAGAAATAGGGTTAATTTCTGCACGTAGAAGCAAAAGGC [ATCAAATAGTA A28G] | Fulfilled |
| GAGACCGCAACTGAAAAGTTGTTATCAGAAATGGAGGTTGTTTCTGCACGTAGAAGCAAAAGGC [ATCAAATGGTT A28G G35A T37G A40G] | Not fulfilled |
| GAGACCGCAACTGAAAAGTTGTATCAGAAATAGGGTTGAATTTCTGCACGTAGAAGCAAAAGGC [TCAGATAGTGA T23A] | Fulfilled |
| GAGACCGCAACTGAAAAGTTGTATAGAAATGGAGGGTTAATTTCTGCACGTAGAAGCAAAAGGC [TAGATGGAGTA T23A] | Not fulfilled |
| GAGACCGCAACTGAAAAGTTGTTATCGAAATGGGGGTTAATTTCTGCACGTAGAAGCAAAAGGC [ATCGATGGGTA] | Not fulfilled |
| GAGACCGCAACTGAAAAGTTGTTATCAGAAGGATGGGTTATTTCTGCACGTAGAAGCAAAAGGC [ATCAAGGAGTT A28G G34T T37G] | Not fulfilled |
| GAGACCGCAACTGAAAAGTTGTTTCAGAAATGTGGGTTGATTTCTGCACGTAGAAGCAAAAGGC [TCAGATGTGTG] | Fulfilled |
| GAGACCGCAACTGAAAAGTTGTTTAGAATGGATGGGTTGATTTCTGCACGTAGAAGCAAAAGGC [TAGAGGATGTG A29T] | Fulfilled |
| GAGACCGCAACTGAAAAGTTGTACAGAAAGGATGGTTGAATTTCTGCACGTAGAAGCAAAAGGC [CAGAGGATTGA T23A] | Fulfilled |
| GAGACCGCAACTGAAAAGTTGTTATGAAAGGTGGGTTGAATTTCTGCACGTAGAAGCAAAAGGC [ATGAGGTGTGA] | Not fulfilled |
| GAGACCGCAACTGAAAAGTTGTATGAAATGGATGGGTTAATTTCTGCACGTAGAAGCAAAAGGC [TGAAGGATGTA T23A A29T] | Fulfilled |
| GAGACCGCAACTGAAAAGTTGTTTCGATGGATGGGTTGAATTTCTGCACGTAGAAGCAAAAGGC [TCGAGATGTGA A28T A29G] | Fulfilled |
| GAGACCGCAACTGAAAAGTTGTACAGAAAGGATGGGTTAATTTCTGCACGTAGAAGCAAAAGGC [CAGAGGATGTA T23A] | Fulfilled |
| GAGACCGCAACTGAAAAGTTGTATCAGAAAGGAGGTTGAATTTCTGCACGTAGAAGCAAAAGGC [TCAGAGGATGA T23A] | Fulfilled |
| GAGACCGCAACTGAAAAGTTGTTATCAAAATGGAGGTTAATTTCTGCACGTAGAAGCAAAAGGC [ATCAATGGGTA G34A] | Not fulfilled |
| GAGACCGCAACTGAAAAGTTGTTTCGAAAGATGGGTTGAATTTCTGCACGTAGAAGCAAAAGGC [TCGAGATGTGA] | Fulfilled |
| GAGACCGCAACTGAAAAGTTGTATCAAAATGGAGGGTTAATTTCTGCACGTAGAAGCAAAAGGC [TCAATGGAGTA T23A] | Fulfilled |
| GAGACCGCAACTGAAAAGTTGTTATGAAATGGAGGTTGAATTTCTGCACGTAGAAGCAAAAGGC [ATGATGGATGA] | Fulfilled |
| GAGACCGCAACTGAAAAGTTGTTTCGAATGATGGGTTGAATTTCTGCACGTAGAAGCAAAAGGC [TCGAGATGTGA A29T] | Fulfilled |
| GAGACCGCAACTGAAAAGTTGTTATCAAAGATGGGTTGAATTTCTGCACGTAGAAGCAAAAGGC [ATCAGATGTGA] | Fulfilled |
| GAGACCGCAACTGAAAAGTTGTTATCAGAAATATGGTTGATTTCTGCACGTAGAAGCAAAAGGC [ATCAAATAGTG A28G G34T] | Fulfilled |
| GAGACCGCAACTGAAAAGTTGTATCAGAATGGTGGGTTAATTTCTGCACGTAGAAGCAAAAGGC [TCAGTGGTGTA T23A] | Not fulfilled |
| GAGACCGCAACTGAAAAGTTGTATCAGAATGTGGGTTGAATTTCTGCACGTAGAAGCAAAAGGC [TCAGTGTGTGA T23A] | Fulfilled |
| GAGACCGCAACTGAAAAGTTGTTATAGAATGGAGGGTTGATTTCTGCACGTAGAAGCAAAAGGC [ATAGTGGAGTG] | Fulfilled |
| GAGACCGCAACTGAAAAGTTGTACAAATGGATGGGTTGAATTTCTGCACGTAGAAGCAAAAGGC [CAAAGATGTGA T23A A28T A29G] | Fulfilled |
| GAGACCGCAACTGAAAAGTTGTTAGAAATGGTGGGTTGAATTTCTGCACGTAGAAGCAAAAGGC [AGAAGGTGTGA A29T] | Fulfilled |
| GAGACCGCAACTGAAAAGTTGTTATCATGGATGGGTTGAATTTCTGCACGTAGAAGCAAAAGGC [ATCAGATGTGA A28T A29G] | Fulfilled |
| GAGACCGCAACTGAAAAGTTGTTACAGAAATGGAGGTTGATTTCTGCACGTAGAAGCAAAAGGC [ACAGATGGGTG G34A] | Fulfilled |
| GAGACCGCAACTGAAAAGTTGTTATCGATGGATGGGTTAATTTCTGCACGTAGAAGCAAAAGGC [ATCGGGATGTA A29T] | Fulfilled |
| GAGACCGCAACTGAAAAGTTGTTATCAGAAATGTGGTTGATTTCTGCACGTAGAAGCAAAAGGC [ATCAAATGGTG A28G G34T] | Fulfilled |
| GAGACCGCAACTGAAAAGTTGTTAAGAAAGATGGGTTGAATTTCTGCACGTAGAAGCAAAAGGC [AAGAGATGTGA] | Not fulfilled |
| GAGACCGCAACTGAAAAGTTGTTACAGAAATATGGGTTAATTTCTGCACGTAGAAGCAAAAGGC [ACAGATATGTA] | Fulfilled |
| GAGACCGCAACTGAAAAGTTGTTAAGAAATGATGGGTTAATTTCTGCACGTAGAAGCAAAAGGC [AAGATGATGTA] | Not fulfilled |
| GAGACCGCAACTGAAAAGTTGTTATAGATGGTGGGTTGAATTTCTGCACGTAGAAGCAAAAGGC [ATAGGGTGTGA A29T] | Fulfilled |
| GAGACCGCAACTGAAAAGTTGTTAAGAATGGATGGGTTGATTTCTGCACGTAGAAGCAAAAGGC [AAGAGGATGTG A29T] | Fulfilled |
| GAGACCGCAACTGAAAAGTTGTTATCAAAATGATGGGTTGTTTCTGCACGTAGAAGCAAAAGGC [ATCAATGAGTT G34T T37G A40G] | Not fulfilled |
| GAGACCGCAACTGAAAAGTTGTTCGAATGGATGGGTTGAATTTCTGCACGTAGAAGCAAAAGGC [CGAAGATGTGA A28T A29G] | Fulfilled |
| GAGACCGCAACTGAAAAGTTGTTATAAAATGATGGGTTGATTTCTGCACGTAGAAGCAAAAGGC [ATAATGATGTG] | Fulfilled |
| GAGACCGCAACTGAAAAGTTGTTATCAGATGATGGGTTGATTTCTGCACGTAGAAGCAAAAGGC [ATCATGATGTG A28G] | Fulfilled |
| GAGACCGCAACTGAAAAGTTGTTACAGAAATGATGGGTTATTTCTGCACGTAGAAGCAAAAGGC [ACAGATGAGTT G34T T37G] | Not fulfilled |
